Tested on: T.r.
measure: MIC
Respond with a number, then the unit of measure.

Fill in the blank: the reported MIC of FC(F)(Oc1ccc(CON=C(Cn2ccnc2)c2ccc(Cl)cc2Cl)cc1)C(Cl)Cl [Verbind. I] is ____.
6.25 µg/mL

Now consider FC(Cl)C(F)(F)Oc1ccc(COC(Cn2ccnc2)c2ccc(Cl)cc2Cl)cc1 (centres unmarked) [Verbind. VI] .
0.8 µg/mL

Now consider Clc1ccc(C(Cn2ccnc2)OCc2ccc(C3CC3(Cl)Cl)cc2)c(Cl)c1 (centres unmarked) [Verbind. III] .
0.8 µg/mL

Now consider Clc1ccc(C(Cn2ccnc2)=NOCc2ccc(C3CC3(Cl)Cl)cc2)c(Cl)c1 (centres unmarked) [Verbind. II] .
6.2 µg/mL

Now consider FC(F)(Oc1ccc(COC(Cn2ccnc2)c2ccc(Cl)cc2Cl)cc1)C(Cl)Cl (centres unmarked) [Verbind. IV] .
0.1 µg/mL

* * *

System: C.t.
The label True is reserved for MIC strictly under 2 µg/mL; False covers values equal to or above it.

Bench note: check whether FC(F)(Oc1ccc(CON=C(Cn2ccnc2)c2ccc(Cl)cc2Cl)cc1)C(Cl)Cl [Verbind. I] shows MIC below 2 µg/mL
True

Now consider FC(F)(Oc1ccc(COC(Cn2ccnc2)c2ccc(Cl)cc2Cl)cc1)C(Cl)Cl (centres unmarked) [Verbind. IV] .
True

Now consider Clc1ccc(C(Cn2ccnc2)OCc2ccc(C3CC3(Cl)Cl)cc2)c(Cl)c1 (centres unmarked) [Verbind. III] .
False

Now consider Clc1ccc(C(Cn2ccnc2)=NOCc2ccc(C3CC3(Cl)Cl)cc2)c(Cl)c1 (centres unmarked) [Verbind. II] .
False

Now consider FC(Cl)C(F)(F)Oc1ccc(COC(Cn2ccnc2)c2ccc(Cl)cc2Cl)cc1 (centres unmarked) [Verbind. VI] .
True
